The reported numbers originate from patent US20190177431A1.

target: T1, extracellular domain of human TF protein (human, UniProt P13726 34-251); experiment: ELISA, coated TF extracellular domain
T1 construct: range 34-251; Limits 34-251 are stated for the immunogen; also called the extracellular domain protein of TF; TF antigen
Consider the following binders; for each one, report its pEC50.
Answers are plain numbers, as −log10 of the molar value.

// worked examples, pEC50 included
TF-mAb-H41 (antibody, V domains shown, Humanized) VH: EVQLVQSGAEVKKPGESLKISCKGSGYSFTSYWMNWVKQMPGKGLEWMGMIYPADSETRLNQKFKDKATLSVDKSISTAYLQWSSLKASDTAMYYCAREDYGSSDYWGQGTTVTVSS VL: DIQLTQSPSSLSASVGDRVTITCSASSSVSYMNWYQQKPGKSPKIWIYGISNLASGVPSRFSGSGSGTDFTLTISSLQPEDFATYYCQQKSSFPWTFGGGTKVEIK; 10.87
TF-mAb-H39 (antibody, V domains shown, Humanized; also called humanized antibody TF-mAb-H39) VH: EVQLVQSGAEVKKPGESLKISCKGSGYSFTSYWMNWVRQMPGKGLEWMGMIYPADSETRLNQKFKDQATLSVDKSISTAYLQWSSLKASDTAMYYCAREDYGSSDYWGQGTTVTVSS VL: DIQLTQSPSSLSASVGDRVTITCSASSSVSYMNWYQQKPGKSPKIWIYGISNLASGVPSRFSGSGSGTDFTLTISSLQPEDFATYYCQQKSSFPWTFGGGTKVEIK; 10.90

Switching to the query record.
Endpoint output: pEC50 of TF-mAb-H40 (antibody, V domains shown, Humanized) VH: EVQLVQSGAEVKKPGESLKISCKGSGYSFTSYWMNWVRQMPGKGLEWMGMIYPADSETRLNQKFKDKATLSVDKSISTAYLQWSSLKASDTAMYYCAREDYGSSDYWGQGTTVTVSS VL: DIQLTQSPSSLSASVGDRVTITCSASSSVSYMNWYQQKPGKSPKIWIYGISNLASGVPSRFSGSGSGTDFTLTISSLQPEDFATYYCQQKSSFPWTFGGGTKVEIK . Value?
10.88
